# test.name: Human liver microsome clearance (HLM CL)
# Format: in vitro ADME
# condition.context: human, microsomes
Structures can show the parent of a compound that is named as a salt.

[
  {
    "molecule": "CC[C@@]1(O)C(=O)OCc2c1cc1n(c2=O)Cc2c-1nc1cc(F)c(C)c3c1c2[C@@](C)(N)CC3 (single isomer, unassigned) [Compound 8-71, hydrochloride]",
    "half-life": "30 min"
  },
  {
    "molecule": "CC[C@@]1(O)C(=O)OCc2c1cc1n(c2=O)Cc2c-1nc1cc(F)c(C)c3c1c2[C@@](C)(OCCO)CC3 (single isomer, unassigned) [Compound 14-91]",
    "half-life": "26.8 min"
  },
  {
    "molecule": "CC[C@@]1(O)C(=O)OCc2c1cc1n(c2=O)Cc2c-1nc1cc(F)c(C)c3c1c2[C@](C)(NC(=O)CO)CC3 [Compound 10-75]",
    "half-life": "45.9 min"
  }
]

----------
# test.name: Human hepatocyte clearance (HHEP CL)
# Format: in vitro ADME
# Design: dose or concentration left out as unconfirmed
# condition.context: both sexes, human, hepatocytes
Counter-ions that a name gives are not always drawn.
In this section we review reported half-life values for a set of compounds.
measured.attribute: half-life (min)

[
  {
    "compound": "CC[C@@]1(O)C(=O)OCc2c1cc1n(c2=O)Cc2c-1nc1cc(F)c(C)c3c1c2[C@@](C)(N)CC3 (single isomer, unassigned) [Compound 8-71, hydrochloride]",
    "measured.attribute": "half-life",
    "result.value": 47
  },
  {
    "compound": "CC[C@@]1(O)C(=O)OCc2c1cc1n(c2=O)Cc2c-1nc1cc(F)c(C)c3c1c2[C@](C)(N)CC3 (single isomer, unassigned) [Compound 8-72, hydrochloride]",
    "measured.attribute": "half-life",
    "result.value": 49
  },
  {
    "compound": "CC[C@@]1(O)C(=O)OCc2c1cc1n(c2=O)Cc2c-1nc1cc(F)c(C)c3c1c2[C@H](O)CC3 (single isomer, unassigned)",
    "measured.attribute": "half-life",
    "result.value": 48.7
  },
  {
    "compound": "CC[C@@]1(O)C(=O)OCc2c1cc1n(c2=O)Cc2c-1nc1cc(F)c(C)c3c1c2[C@](C)(OCCO)CC3 (single isomer, unassigned)",
    "measured.attribute": "half-life",
    "result.value": 75.1
  }
]

----------
In this section we review reported pIC50 values for a set of compounds.
# System: Jeko-1
# test.name: CTG assay of ROR-1 ADCs and toxins, JeKo-1
# Type: cell-based
# condition.context: Homo sapiens; Jeko-1 P3, run 1, 72 h; read-out: Jeko-1 P3 (RUN1) IC50
pIC50: −log10 of the molar value.

[
  {
    "compound": "CC[C@@]1(O)C(=O)OCc2c1cc1n(c2=O)Cc2c-1nc1cc(F)c(C)c3c1c2[C@@H](OCCO)CC3 (single isomer, unassigned)",
    "pIC50": 9.30
  },
  {
    "compound": "CC[C@@]1(O)C(=O)OCc2c1cc1n(c2=O)Cc2c-1nc1cc(F)c(C)c3c1c2[C@@](C)(NC(=O)CO)CC3",
    "pIC50": 8.62
  }
]
